FYI, the data here is from PubChem BioAssay (NCI).

# Tested on: TK-10 renal
# assay-details: NCI tumour cell line growth inhibition, 48 h
Listing of entries alongside the reported TGI.
metric: TGI

molecule=Cc1ccc(-n2c(-c3cc4c([nH]c5ccccc54)c(-c4cccc(O)c4)n3)n[nH]c2=S)cc1 result="16.2 µM"
molecule=CCOC(=O)/C=C\C(C#N)(C#N)N=Cc1ccsc1 result="4.63 µM"
molecule="C=CCNC(=O)CN(CC(=O)O)C1CCCCC1N(CC(=O)O)CC(=O)O (stereo unspecified)" result="> 100 µM"
molecule="CCOP(=O)(OCC)C(Cc1ccc(Cl)cc1)NS(=O)(=O)c1ccc(C)cc1 (stereo unspecified)" result="> 100 µM"
molecule=N#C/C(=C\c1cc2ccc(N3CCC3)cc2oc1=O)C(=O)N(CC(=O)O)CC(=O)O result="> 100 µM"
molecule=O=c1[nH]c2nc[nH]c2c(=O)n1C1CCCCC1 result="> 100 µM"
molecule="Nc1nc2ncn(CC(O)CO)c2c(=O)[nH]1 (stereo unspecified)" result="> 100 µM"
molecule=O=[N+]([O-])C(=C/c1cccc2ccccc12)/C(=C\c1cccc2ccccc12)[N+](=O)[O-] result="4.65 µM"
molecule=CC(=O)O[C@@H]1[C@H]2[C@@H](OC(=O)c3ccccc3)[C@@H](C)C[C@]2(O)[C@H](OC(C)=O)[C@@]2(C)[C@@H]3C[C@@](C)(OC(C)=O)C[C@@H](OC(C)=O)[C@@]3(OC(C)=O)C[C@@]12C result="> 10 µM"
molecule="CCC(=O)C(CCN1CCC(N2C(=O)C(CCC#N)c3ccccc32)CC1)(c1ccccc1)c1ccccc1 (stereo unspecified)" result="31.2 µM"
molecule=Cc1cc(O)c2c3c(ccc2c1)C(=O)c1c(O)cccc1C3=O result="> 100 µM"
molecule=N#Cc1cc2c(cc1Cl)Sc1nnc(Nc3cccc4ccccc34)n1S2(=O)=O result="5.07 µM"
molecule=CCn1ccnc1C(=O)/C=C/c1ccc(CC(=O)Nc2ccc(F)cc2)cc1 result="> 16.7 µM"
molecule=O=C(O)CCCc1ccccc1 result="> 1000 µM"
molecule="CCN1C[C@]2(C)CC[C@H](OC)C34C5C[C@@H]6[C@@H](OC)C[C@@](OC)(C5[C@H]6OCc5ccccc5)C(C13)[C@H](OC(C)=O)[C@@H]42 (stereo partly specified)" result="> 100 µM"
molecule=c1cncc(CSc2ncnc3nc[nH]c23)c1 result="> 100 µM"
molecule="O=C(O)C12CC3CC(C1)C2C=C3P(=O)(O)O (stereo unspecified)" result="> 100 µM"
molecule=CC1(C)[C@H](O)[C@H](F)C[C@@]2(C)Oc3ccc(C(=O)Nc4ccc5c(c4)NC(=O)C54CCN(CCCCC#N)CC4)cc3C[C@H]12 result="14.7 µM"
molecule=CC(=O)Nc1ccc(S(=O)(=O)NN(C)S(=O)(=O)c2ccc(C)cc2)cc1 result="> 100 µM"
molecule=COc1cc(-c2cc(=O)c3ccccc3[nH]2)cc(OC)c1OC result="> 75 µM"
molecule="Cc1ccc(S(=O)(=O)N2CC(CCN)c3ccccc32)cc1 (stereo unspecified)" result="> 51.1 µM"
